Below, each of the compounds is paired with its reported log10(TGI) value.
system: OVCAR-5 ovarian; assay: NCI tumour cell line growth inhibition, 48 h
For clarity, the numbers are log10 values of TGI expressed in µM.

# annotated cases, reported log10(TGI) shown
CC(C)=CCc1c(OC(=O)c2c(C)cc(O)cc2O)cc(CO)c(CO)c1O	1.63
COC(=O)[C@]1(c2cc3ccccc3n2S(=O)(=O)c2ccccc2)CC2CN(C(C)=O)C1CC2=O (some centres undefined)	1.12
CCCCCC[N+](C)(C)Cc1ccc(C[N+](C)(C)CCCCCC)cc1	1.39
[Cl][Hg][Cl]	1.53
N/C(=N\S(=O)(=O)c1ccc(S(=O)(=O)c2ccccc2)s1)Nc1ccc(Cl)cc1	1.99
Cc1cnc2sn(-c3ccc(Oc4ccccc4)cc3)c(=O)c2c1	1.55
CC(C)/C(Cl)=N\OC(=O)Nc1ccccc1F	1.52
O=c1[nH]c(=O)n(C2OC(COP(=O)(O)OP(=O)(O)OC3OC(CO)C(O)C(O)C3O)C(O)C2O)cc1F (centres undefined)	0.73
Cc1nc(Nc2ccc(Cl)cc2)sc1C(=O)NNc1ccc([N+](=O)[O-])cc1[N+](=O)[O-]	1.49

Query compound follows.
## Task Field request: log10(TGI) | item: CO[C@H]1/C=C/O[C@@]2(C)Oc3c(C)c(O)c4c(c3C2=O)C(=O)C(/C=N/N(c2ccccc2)c2ccccc2)=C(NC(=O)/C(C)=C\C=C\[C@H](C)[C@H](O)[C@@H](C)[C@@H](O)[C@@H](C)[C@H](OC(C)=O)[C@@H]1C)C4=O
## Result 0.57

###

tested on: IGROV1 ovarian; assay: NCI tumour cell line growth inhibition, 48 h
readout-label: TGI (µM)
// return numeric value only (unit: µM, not printed)

# annotated cases, reported TGI shown
Cc1cccc2c(=O)c([Se]c3coc4c(C)cccc4c3=O)coc12	26.5
COc1ccc2c(C)cc(N/N=C/c3ccc(OC)c4ccccc34)nc2c1	29.3
O=S(=O)(CCBr)CCBr	18.8
C#CCOc1cccc(-c2ncnc3cc(NC(=O)CCl)ccc23)c1	1.92
CCOC(=O)C1=CNC(C(=O)OCC)C1c1cccn1-c1ccc(Cl)cc1[N+](=O)[O-] (centres undefined)	29.9
Nc1ccc(C2=NN(c3ccccc3)C(c3ccc(Cl)cc3)C2)cc1 (centres undefined)	8.15

## Task Field request: TGI | item: COC(=O)c1c(O)ccc2c1c1c(n2Cc2ccccc2Cl)C(=O)c2ccccc2C1=O
## Result 28.3

## Task Could you do the same for COc1cc(/C=C2\C(=O)Nc3cc(C)c(O)cc32)cc(OC)c1OC , please?
## Result 21.3

## Task Could you do the same for Cc1ccc(C)c2c1C(O)(C#Cc1ccccc1)c1ccccc1C2(O)C#Cc1ccccc1 (centres undefined) , please?
## Result 51.3

###

Below, each of the compounds is paired with its reported TGI value.
test system: HCC-2998 colon; test: NCI tumour cell line growth inhibition, 48 h

# annotated cases, reported TGI shown
CCN(Cc1cccc(F)c1)c1ccc(CO)c(Cl)c1	35.5 µM
CCOC(=O)c1sc(-c2ccc(OS(=O)(=O)c3ccc(Br)s3)c(C=O)c2)nc1C	29.3 µM
O=C(CP(=O)(O)O)NC(CC(=O)OCc1ccccc1)C(=O)OCc1ccccc1 (stereo not given)	> 100 µM

## Task Field request: TGI | item: OC(c1cc2ccccc2o1)c1cc2ccccc2s1 (stereo not given)
## Result > 10 µM

## Task Could you do the same for COc1ccc(OC)c(/C(C)=N/NC(N)=S)c1 , please?
## Result > 100 µM

## Task Could you do the same for C[C@]12CC[C@H]3[C@@H](CC=C4C[C@@H](N5CCCC5)CC[C@@]43C)[C@@H]1C[C@H](N1CCOCC1)[C@@H]2O , please?
## Result > 100 µM
